experiment: Pharmacokinetics in plasma and eye tissues of male SD rats after single administration of eye drop
Format: in vivo
measurement parameters: SD (Sprague-Dawley), rat, topical or ocular; male SD rats, single eye drop 5 mg/mL, 30 μL/eye, both eyes; Upper and lower eyelids
readout name: Cmax (µM)
Response body: numeric value in µM, unit text excluded.

For reference, reported Cmax for `c1cn2c(n1)c(Nc1ccc(N3CCOCC3)cc1)nc1ccc(-c3cn[nH]c3)cc12` stands at 10.4

----------
experiment: Pharmacokinetics in plasma and eye tissues of male SD rats after single administration of eye drop
Type: in vivo
measurement parameters: rat, topical or ocular; male SD rats, single eye drop 5 mg/mL, 30 μL/eye, both eyes; Plasma; read-out: MRT0-last
readout name: MRT last (h)
Give just the number in h; leave the unit off.

Query `c1cn2c(n1)c(Nc1ccc(N3CCOCC3)cc1)nc1ccc(-c3cn[nH]c3)cc12` yields MRT last of 2.98

----------
experiment: Pharmacokinetics in plasma and eye tissues of male SD rats after single administration of eye drop
Assay type: in vivo
measurement parameters: SD (Sprague-Dawley), rat, topical or ocular, both eyes; male SD rats, single eye drop 5 mg/mL, 30 μL/eye; Cornea; sampling range 1-24 h
readout name: half-life

Input `c1cn2c(n1)c(Nc1ccc(N3CCOCC3)cc1)nc1ccc(-c3cn[nH]c3)cc12` . Output half-life: 4.84 h

----------
experiment: Pharmacokinetics in plasma and eye tissues of male SD rats after single administration of eye drop
Format: in vivo
measurement parameters: SD (Sprague-Dawley), rat, topical or ocular, both eyes; male SD rats, single eye drop 5 mg/mL, 30 μL/eye; Bulbar conjunctiva; sampling range 1-24 h; linear regression coefficient of elimination phase less than 0.9
readout name: half-life
Could you kindly put the unit after your number?

// field: half-life; key: `c1cn2c(n1)c(Nc1ccc(N3CCOCC3)cc1)nc1ccc(-c3cn[nH]c3)cc12` ; value = 5.12 h

----------
experiment: Pharmacokinetics in plasma and eye tissues of male SD rats after single administration of eye drop
Assay type: in vivo
measurement parameters: SD (Sprague-Dawley), rat, topical or ocular; male SD rats, single eye drop 5 mg/mL, 30 μL/eye, both eyes; Cornea
readout name: Cmax (nM)
Response body: numeric value in nM, unit text excluded.

# molecule `c1cn2c(n1)c(Nc1ccc(N3CCOCC3)cc1)nc1ccc(-c3cn[nH]c3)cc12` ; its Cmax = 1590

----------
experiment: Pharmacokinetics in plasma and eye tissues of male SD rats after single administration of eye drop
Assay type: in vivo
measurement parameters: rat, topical or ocular; male SD rats, single eye drop 5 mg/mL, 30 μL/eye, both eyes; Aqueous humor of anterior chamber; read-out: MRT0-last
readout name: MRT last
State the value with its unit after it.

Lab note: measured MRT last of `c1cn2c(n1)c(Nc1ccc(N3CCOCC3)cc1)nc1ccc(-c3cn[nH]c3)cc12` was 3.35 h

----------
experiment: Pharmacokinetics in plasma and eye tissues of male SD rats after single administration of eye drop
Type: in vivo
measurement parameters: SD (Sprague-Dawley), rat, topical or ocular; male SD rats, single eye drop 5 mg/mL, 30 μL/eye, both eyes; Bulbar conjunctiva
readout name: Cmax
Just the number plus its unit, please.

Recorded result, `c1cn2c(n1)c(Nc1ccc(N3CCOCC3)cc1)nc1ccc(-c3cn[nH]c3)cc12` , Cmax: 4.51 µM

----------
experiment: Pharmacokinetics in plasma and eye tissues of male SD rats after single administration of eye drop
Type: in vivo
measurement parameters: rat, topical or ocular; male SD rats, single eye drop 5 mg/mL, 30 μL/eye, both eyes; Cornea; extrapolated; read-out: MRT0-inf
readout name: MRT inf (h)
# output: bare number, implied unit h

// MRT inf value for `c1cn2c(n1)c(Nc1ccc(N3CCOCC3)cc1)nc1ccc(-c3cn[nH]c3)cc12` : 5.74

----------
experiment: Pharmacokinetics in plasma and eye tissues of male SD rats after single administration of eye drop
Type: in vivo
measurement parameters: SD (Sprague-Dawley), rat, topical or ocular; male SD rats, single eye drop 5 mg/mL, 30 μL/eye, both eyes; Plasma
readout name: AUC(0-t) (nM·h)
Give your result in nM·h as a bare value.

The recorded AUC(0-t) for entry `c1cn2c(n1)c(Nc1ccc(N3CCOCC3)cc1)nc1ccc(-c3cn[nH]c3)cc12` equals 5.32

----------
experiment: Pharmacokinetics in plasma and eye tissues of male SD rats after single administration of eye drop
Type: in vivo
measurement parameters: rat, topical or ocular; male SD rats, single eye drop 5 mg/mL, 30 μL/eye, both eyes; Upper and lower eyelids; read-out: MRT0-last
readout name: MRT last (h)
A number alone suffices; assume h.

Sure, the documented MRT last for `c1cn2c(n1)c(Nc1ccc(N3CCOCC3)cc1)nc1ccc(-c3cn[nH]c3)cc12` is 8.4

----------
experiment: Pharmacokinetics in plasma and eye tissues of male SD rats after single administration of eye drop
Type: in vivo
measurement parameters: SD (Sprague-Dawley), rat, topical or ocular, both eyes; male SD rats, single eye drop 5 mg/mL, 30 μL/eye; Upper and lower eyelids; sampling range 1-24 h
readout name: half-life (h)
Give just the numeric value; h need not be written.

In plain terms, `c1cn2c(n1)c(Nc1ccc(N3CCOCC3)cc1)nc1ccc(-c3cn[nH]c3)cc12` has a documented half-life of 9.45

----------
experiment: Pharmacokinetics in plasma and eye tissues of male SD rats after single administration of eye drop
Assay type: in vivo
measurement parameters: SD (Sprague-Dawley), rat, topical or ocular; male SD rats, single eye drop 5 mg/mL, 30 μL/eye, both eyes; Plasma
readout name: Cmax (nM)
// note: answer is a bare numeric in nM

// sample `c1cn2c(n1)c(Nc1ccc(N3CCOCC3)cc1)nc1ccc(-c3cn[nH]c3)cc12` , its Cmax was 1.23

----------
experiment: Pharmacokinetics in plasma and eye tissues of male SD rats after single administration of eye drop
Assay type: in vivo
measurement parameters: rat, topical or ocular; male SD rats, single eye drop 5 mg/mL, 30 μL/eye, both eyes; Aqueous humor of anterior chamber; extrapolated; read-out: MRT0-inf
readout name: MRT inf
Please format your answer as a value with the unit trailing.

Item: `c1cn2c(n1)c(Nc1ccc(N3CCOCC3)cc1)nc1ccc(-c3cn[nH]c3)cc12` | MRT inf: 6.27 h

----------
experiment: Pharmacokinetics in plasma and eye tissues of male SD rats after single administration of eye drop
Type: in vivo
measurement parameters: SD (Sprague-Dawley), rat, topical or ocular, both eyes; male SD rats, single eye drop 5 mg/mL, 30 μL/eye; Aqueous humor of anterior chamber; sampling range 6-24 h
readout name: half-life (h)
Field: numeric (h). Do not append units.

Entry under test: `c1cn2c(n1)c(Nc1ccc(N3CCOCC3)cc1)nc1ccc(-c3cn[nH]c3)cc12` . Its half-life was 12.3

----------
experiment: Pharmacokinetics in plasma and eye tissues of male SD rats after single administration of eye drop
Assay type: in vivo
measurement parameters: rat, topical or ocular; male SD rats, single eye drop 5 mg/mL, 30 μL/eye, both eyes; Upper and lower eyelids; extrapolated
readout name: AUC(0-inf) (µM·h)
Please respond with the number in µM·h and leave the unit unwritten.

The reported value for `c1cn2c(n1)c(Nc1ccc(N3CCOCC3)cc1)nc1ccc(-c3cn[nH]c3)cc12` in terms of AUC(0-inf) is 80

----------
experiment: Pharmacokinetics in plasma and eye tissues of male SD rats after single administration of eye drop
Assay type: in vivo
measurement parameters: SD (Sprague-Dawley), rat, topical or ocular; male SD rats, single eye drop 5 mg/mL, 30 μL/eye, both eyes; Plasma; extrapolated
readout name: AUC(0-inf) (nM·h)
Enter your answer as a number in nM·h; do not include the unit.

AUC(0-inf) recorded for this molecule, `c1cn2c(n1)c(Nc1ccc(N3CCOCC3)cc1)nc1ccc(-c3cn[nH]c3)cc12` , is 9.56

----------
experiment: Pharmacokinetics in plasma and eye tissues of male SD rats after single administration of eye drop
Assay type: in vivo
measurement parameters: SD (Sprague-Dawley), rat, topical or ocular; male SD rats, single eye drop 5 mg/mL, 30 μL/eye, both eyes; Bulbar conjunctiva
readout name: AUC(0-t) (µM·h)
Write the number in µM·h without appending the unit.

Record summary for `c1cn2c(n1)c(Nc1ccc(N3CCOCC3)cc1)nc1ccc(-c3cn[nH]c3)cc12` : reported AUC(0-t) = 15.5

----------
experiment: Pharmacokinetics in plasma and eye tissues of male SD rats after single administration of eye drop
Format: in vivo
measurement parameters: SD (Sprague-Dawley), rat, topical or ocular; male SD rats, single eye drop 5 mg/mL, 30 μL/eye, both eyes; Cornea
readout name: Tmax (min)
Please state the figure in min; there is no need to write the unit.

// Tmax value for `c1cn2c(n1)c(Nc1ccc(N3CCOCC3)cc1)nc1ccc(-c3cn[nH]c3)cc12` : 30

----------
experiment: Pharmacokinetics in plasma and eye tissues of male SD rats after single administration of eye drop
Type: in vivo
measurement parameters: rat, topical or ocular; male SD rats, single eye drop 5 mg/mL, 30 μL/eye, both eyes; Plasma; extrapolated; read-out: MRT0-inf
readout name: MRT inf (h)
Enter your answer as a number in h; do not include the unit.

Entry `c1cn2c(n1)c(Nc1ccc(N3CCOCC3)cc1)nc1ccc(-c3cn[nH]c3)cc12` , MRT inf reported as 7.39
